tested on: Sustained ventricular tachycardia induced by electrical pacing of infarcted dog heart; assay: Antiarrhythmic activity on sustained ventricular tachycardia induced by electrical pacing of infarcted dog heart; format: in vivo; settings: 6mg/kg
Observed Property: Effect on SVT

> print(dat)
                                   compound                               measured.on  observed.property  result.value
1  O=C1C2CC(CN(Cc3ccccc3)C2)CN1Cc1ccccc1 (centres unmarked)  Sustained ventricular tachycardia induced by electrical pacing of infarcted dog heart      Effect on SVT       Reduced
2  COC1(OC)C2CN(Cc3ccccc3)CC1CN(Cc1ccccc1)C2  Sustained ventricular tachycardia induced by electrical pacing of infarcted dog heart      Effect on SVT       Reduced
3              O=C(c1ccccc1)N1CC2CSCC(C2)C1  Sustained ventricular tachycardia induced by electrical pacing of infarcted dog heart      Effect on SVT       Reduced

Ref: patent US5110933A
